Target: A2a (coronary) (Cavia porcellus)
Sequence (P46616 whole entry): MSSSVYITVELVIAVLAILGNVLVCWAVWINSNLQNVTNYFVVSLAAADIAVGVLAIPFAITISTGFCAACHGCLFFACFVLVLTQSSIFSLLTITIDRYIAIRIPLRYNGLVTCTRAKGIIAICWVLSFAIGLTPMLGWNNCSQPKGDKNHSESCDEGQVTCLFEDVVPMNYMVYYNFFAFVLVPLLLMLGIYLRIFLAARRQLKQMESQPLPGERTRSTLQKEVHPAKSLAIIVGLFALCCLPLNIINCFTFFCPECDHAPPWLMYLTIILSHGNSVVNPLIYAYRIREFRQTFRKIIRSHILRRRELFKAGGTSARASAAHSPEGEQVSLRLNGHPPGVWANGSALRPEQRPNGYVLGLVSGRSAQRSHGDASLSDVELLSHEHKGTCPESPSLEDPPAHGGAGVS
Conditions: read-out: A50 CORONARY (A2a EFFECT); isolated guinea pig heart; concentration producing a 50% maximal response
pEC50: −log10 of the molar value.
Measurement type: pEC50

{"Compound": "Nc1nc(NN=CC2CCCCC2)nc2c1ncn2[C@@H]1O[C@H](CO)[C@@H](O)[C@H]1O [Compound A]", "Value reported": 9.70}

---

Biological target: A1 (EKG) (Cavia porcellus)
Construct: An isolated guinea pig heart preparation was set up using well-known techniques; from tissue; host or cells: isolated perfused guinea pig heart
Sequence (P47745 1-326): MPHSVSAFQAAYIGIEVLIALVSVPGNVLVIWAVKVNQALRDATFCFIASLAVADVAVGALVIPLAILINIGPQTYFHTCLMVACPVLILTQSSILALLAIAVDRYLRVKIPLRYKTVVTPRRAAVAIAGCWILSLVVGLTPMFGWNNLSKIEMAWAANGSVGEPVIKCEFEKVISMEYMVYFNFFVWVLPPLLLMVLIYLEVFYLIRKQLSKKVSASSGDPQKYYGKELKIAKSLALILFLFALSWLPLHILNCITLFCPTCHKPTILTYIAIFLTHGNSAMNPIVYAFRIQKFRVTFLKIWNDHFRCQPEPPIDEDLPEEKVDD
Experiment: A50 for decrease in heart rate or conduction velocity on the EKG (A1 effect) in the isolated guinea pig heart
Measurement type: EC50 (µM)

{"Chemical smiles": "Nc1nc(NN=CC2CCCCC2)nc2c1ncn2[C@@H]1O[C@H](CO)[C@@H](O)[C@H]1O", "Measurement type": "EC50", "Units of measure": "µM", "Value reported": 3}
